biological target: Beta-adrenergic receptor kinase 1 (Homo sapiens); assay: GRK2 binders displacing RNA aptamer, biochemical, validation, human GRK2, bead flow cytometry (AID 488806); conditions: bead-bound GRK2, FAM-aptamer displacement, at 10 µM, stronger effect = higher value
MEASURE: aptamer binding inhibition (%)

> print(dat)
                                    compound  measured
 1  C[N+]1(C)CCOC(O)(c2ccc(-c3ccc(C4(O)C[N+](C)(C)CCO4)cc3)cc2)C1 (stereo not drawn)        -3
 2      Cc1nc2ccccc2c(=O)n1-c1ccc(C(=O)O)cc1         3
 3                COc1ccc(C(=O)N2CCCC2=O)cc1        -4
 4  C[C@]12CCC(=O)C=C1CC[C@@H]1[C@@H]2CC[C@]2(C)C(=O)CC[C@@H]12         1
 5  C[C@]12CCC(=O)C(O)=C1CC[C@@H]1[C@@H]2CC[C@]2(C)C(=O)CC[C@@H]12         1
 6            O=C(O)CCCc1ccc(N(CCCl)CCCl)cc1         4
 7  O=c1[nH]c(=S)n(-c2ccccc2)c(O)c1/C=N/N1CCCCC1c1cccnc1 (stereo not drawn)         4
 8  COc1ccc(CN2CC3CC(C2)c2cccc(=O)n2C3)cc1OC (stereo not drawn)         0
 9                CN[C@H](C)[C@H](O)c1ccccc1         4
10            COc1ccc2c3c([nH]c2c1)C(C)=NCC3       -10
11  CCOC(=O)c1cncn1C(C)c1ccccc1 (stereo not drawn)         4
12            CC(=O)Nc1cc([As](=O)(O)O)ccc1O         0
13  Cc1cc(OCc2cc(C(=O)O)oc2C)c2c3c(c(=O)oc2c1)CCCC3         4
14  C[C@H]1CCCC(=O)CCCCCc2cc(O)cc(O)c2C(=O)O1        -1
15            OC(c1ccccc1)(c1ccccc1)C1CCNCC1        12
16  CC(C)[N+](C)(CCC(C(N)=O)(c1ccccc1)c1ccccc1)C(C)C         2
17  CCN(CC)C(=O)N[C@H]1C[C@@H]2c3cccc4[nH]cc(c34)C[C@H]2N(C)C1        -2
18  CC[C@@H](CO)NC(=O)[C@@H]1C=C2c3cccc4c3c(cn4C)C[C@H]2N(C)C1         2
19                    NCCc1c[nH]c2ccc(F)cc12        -1
20                    c1ccc2c(c1)Nc1ccccc1S2         2
21  CC1CCC[C@H](O)CCCCCc2cc(O)cc(O)c2C(=O)O1 (stereo partly drawn)        -3
22  CCNC(=O)[C@H]1O[C@@H](n2cnc3c(N)ncnc32)[C@H](O)[C@@H]1O        66
23  COC1=CC(=O)OC(/C=C/c2ccccc2)C1 (stereo not drawn)        -1

----------
assay: RPL19A-GFP modulators, yeast TOR pathway, confirmation, cell-based, S. cerevisiae, flow cytometry, cherry picks, mother/daughter gates (AID 2270); settings: S. cerevisiae RPL19A-GFP strain, 3 h, measured here: mother cell gate, at 10 µM, stronger effect = lower value, 100 = same GFP as DMSO wells
Measured GFP response vs DMSO values are reported for all entries that follow.
MEASURE: GFP response vs DMSO (%)

> print(dat)
                                    compound               measure  measured
 1      O=C(O)c1nn(Cc2ccc(Cl)cc2Cl)c2ccccc12  GFP response vs DMSO       104
 2  CCC(C)N1C(=O)/C(=C\c2cnc(N(C)C)nc2)C(=O)NC1=S (stereo unspecified)  GFP response vs DMSO      93.8
 3  O=C1NC(=O)C(=Cc2ccc(Sc3ccccc3)o2)C(=O)N1  GFP response vs DMSO      89.2
 4               O=C1C(=O)c2ccccc2-c2ccccc21  GFP response vs DMSO       116
 5              N#CC(C#N)=Cc1ccc(N2CCCC2)cc1  GFP response vs DMSO       107
 6  O=C1NC(=O)N(c2ccccc2)C(=O)/C1=C\c1ccc([N+](=O)[O-])o1  GFP response vs DMSO        98
 7  C[C@]12CC[C@@H](O)C[C@@H]1CC[C@@H]1[C@@H]2CC[C@]2(C)[C@@H](O)CC[C@@H]12  GFP response vs DMSO      94.1
 8                    Nc1ccc(N=Nc2ccccc2)cc1  GFP response vs DMSO      96.2
 9  C[C@]12CCC(=O)C=C1CC[C@@H]1[C@@H]2CC[C@]2(C)C(=O)CC[C@@H]12  GFP response vs DMSO      97.7
10  O=C1NC(=O)N(CCc2ccc(F)cc2)C(=O)/C1=C/c1cccs1  GFP response vs DMSO      94.1
11   O=[N+]([O-])c1ccc(N2CCNCC2)cc1Sc1ccccn1  GFP response vs DMSO      99.4

----------
Measured inhibition values are reported for all entries that follow.
molecular target: Botulinum neurotoxin type A (Clostridium botulinum); experiment: BoNT/A light chain protease inhibitors, biochemical, multiplex microsphere flow cytometry, validation set (AID 588460); conditions: at 10 µM, stronger effect = higher value
MEASURE: inhibition (%)

> print(dat)
                                   compound  measured
1               Cc1cc(C)c2c(CCl)cc(=O)oc2c1      -1.5
2                    NCCc1c[nH]c2ccc(F)cc12      -0.7
3  CC1(C)[C@@H](O)CC[C@]2(C)[C@H]3C(=O)C=C4[C@@H]5C[C@@](C)(C(=O)O)CC[C@]5(C)CC[C@@]4(C)[C@]3(C)CC[C@@H]12      -1.5
4  Cc1ccc2nc(C)c3c(c2c1)OC(C(C)(Cl)Br)C3 (stereo unspecified)      -0.5
5              C=C(C)C(=O)Nc1ccc(NC(C)C)cc1      -0.8
6  COc1ccccc1Oc1c(C)oc2c(CN3CCN(CCO)CC3)c(O)ccc2c1=O      -1.2

----------
Measured inhibition values are reported for all entries that follow.
target: Lethal factor (Bacillus anthracis) (UniProt P15917); assay: Lethal factor protease inhibitors, Bacillus anthracis, multiplex microsphere cleavage assay, validation set (AID 588461); details: flow cytometry, at 10 µM, stronger effect = higher value
Sequence (P15917 whole entry, looked up): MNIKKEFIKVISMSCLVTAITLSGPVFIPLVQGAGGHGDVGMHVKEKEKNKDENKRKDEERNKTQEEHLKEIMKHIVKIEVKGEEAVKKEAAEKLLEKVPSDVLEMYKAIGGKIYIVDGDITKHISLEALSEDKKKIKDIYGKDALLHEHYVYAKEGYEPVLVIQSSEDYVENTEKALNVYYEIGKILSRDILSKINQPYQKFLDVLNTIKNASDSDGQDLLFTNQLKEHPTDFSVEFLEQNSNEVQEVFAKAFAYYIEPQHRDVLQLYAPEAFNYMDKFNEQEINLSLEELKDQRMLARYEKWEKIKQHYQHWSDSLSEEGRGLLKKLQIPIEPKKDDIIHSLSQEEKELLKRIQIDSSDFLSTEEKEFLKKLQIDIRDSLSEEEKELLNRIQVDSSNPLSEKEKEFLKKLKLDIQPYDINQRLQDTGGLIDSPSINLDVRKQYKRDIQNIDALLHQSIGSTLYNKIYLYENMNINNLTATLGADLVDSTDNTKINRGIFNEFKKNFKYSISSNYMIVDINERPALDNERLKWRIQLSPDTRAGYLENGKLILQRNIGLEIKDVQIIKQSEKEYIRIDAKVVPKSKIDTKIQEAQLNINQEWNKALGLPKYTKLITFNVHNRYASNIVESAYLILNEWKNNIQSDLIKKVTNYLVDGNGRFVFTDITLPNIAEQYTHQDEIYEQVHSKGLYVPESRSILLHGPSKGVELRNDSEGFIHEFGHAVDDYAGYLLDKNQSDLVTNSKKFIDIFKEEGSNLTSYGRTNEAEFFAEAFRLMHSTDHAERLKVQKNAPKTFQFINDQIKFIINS
MEASURE: inhibition (%)

> print(dat)
                                    compound  measured
 1  COc1cc(C2C(C(C)=O)=C(O)C(=O)N2c2ccc(C)cc2)ccc1O (configuration not stated)         0
 2  CCCN(CCC)C(=O)C(CCC(=O)O)NC(=O)c1ccccc1 (configuration not stated)       8.6
 3     CC(=O)c1c(C)[nH]c(C(=O)OCc2ccccc2)c1C      -6.6
 4  Cc1[nH]c2ccccc2c1/C=C/c1nc2ccccc2c(=O)n1CCO       0.2
 5  NS(=O)(=O)c1cc(C2(O)NC(=O)c3ccccc32)ccc1Cl (configuration not stated)      -7.1
 6  C[C@]12CC[C@@H]3c4ccc(O)cc4CC[C@H]3[C@@H]1CC[C@@H]2OC(=O)CCC(=O)O       -10
 7  O=C(O)CC(O)C(=O)O (configuration not stated)       3.8
 8  CC(C)(C)C(=O)Nc1cccc(OC(F)(F)C(F)Cl)c1 (configuration not stated)        -6
 9    O=C(NCc1ccc(N2CCCC2=O)cc1)c1cccc(Cl)c1         1
10  CC#C[C@]1(O)CC[C@H]2[C@@H]3CCC4=CC(=O)CCC4=C3[C@@H](c3ccc(N(C)C)cc3)C[C@@]21C      -7.2
11  O=C(NCC1CCCCN1)c1cc(OCC(F)(F)F)ccc1OCC(F)(F)F (configuration not stated)        -2
12  CC12CCCCN1CCCc1c2[nH]c2ccccc12 (configuration not stated)     -11.1
13  CC1(C)Cc2nc3sc4c(=O)n(CC(N)=O)cnc4c3cc2CO1      -3.8
14  COc1cccc(=O)c2c(C)n(CC(=O)c3ccccc3)c(C)c12      -9.8
15  CN[C@H]1C[C@H]2O[C@@](C)([C@H]1OC)n1c3ccccc3c3c4c(c5c6ccccc6n2c5c31)C(=O)NC4       6.2
16  O=c1oc2c(CN3CCN(CCO)CC3)c(O)ccc2cc1-c1ccccn1      -4.2
17                COc1ccc2oc(C)c(C(N)=O)c2c1      -0.4
18               COc1ccc(CN2CCC(=O)NC2=O)cc1      -3.5
19                 CC(=O)c1ccc(-c2ccccc2)cc1      -1.9
20             C(=C\c1ccc2ccccc2n1)/c1ccccc1      -3.3
21                         C#CCN(C)Cc1ccccc1      -2.8
22  CCCCNc1cc(C(=O)O)cc(S(N)(=O)=O)c1Oc1ccccc1      -3.2
23  CCC(=O)O[C@]1(C(=O)CCl)[C@@H](C)C[C@H]2[C@@H]3CCC4=CC(=O)C=C[C@]4(C)[C@@]3(F)[C@@H](O)C[C@@]21C      -3.4
24                   CC[N+](C)(C)Cc1ccccc1Br       0.6
25     O=C(NC(=S)Nc1nc(-c2ccccc2)cs1)c1ccco1      -0.3
26  OCCOCCN1CCN(C(c2ccccc2)c2ccc(Cl)cc2)CC1 (configuration not stated)       1.1
27        COC(=O)c1ccc(CC(=O)c2ccc(O)cc2O)o1      -5.4
28  CC(=O)OCC(OC(C)=O)C(OC(C)=O)C(OC(C)=O)C(=O)Nc1cccc(C)c1 (configuration not stated)       3.1
29               Cc1cccc(Nc2ccccc2C(=O)O)c1C        -6
30         Cc1ccc2occ(C(=O)c3ccco3)c(=O)c2c1       2.6
31  O=c1cc(CN2CCN(c3cccc(Cl)c3)CC2)c2cc(O)c(-c3ccccc3)cc2o1      -0.5
32              O=[N+]([O-])c1cccc2cn[nH]c12       6.3
33     Cc1ccc(-c2nnc(-c3ccc4c(c3)OCO4)o2)cc1        -8
34                   CCOCC(=O)Nc1nc2ccccc2s1      -0.2
35  CC1(C)CC(NC(=O)C23CCC(C)(C(=O)C2=O)C3(C)C)CC(C)(C)N1 (configuration not stated)      -4.5
36  CCNC(=S)N1CCN(CCN2C(=O)c3cccc4cccc(c34)C2=O)CC1      10.2
37  CC(C)NCC(O)COc1ccc(CCOCC2CC2)cc1 (configuration not stated)       1.3
38  COc1ccc(NC2=NCC(C)S2)cc1 (configuration not stated)      -2.7
39  COc1ccccc1CN1CCCCC1c1cccnc1 (configuration not stated)         4
40            CC(=O)c1ccc(CCCCCCCCCC(=O)O)s1        -1
41  O=P(c1ccccc1)(c1ccccc1)c1nc(-c2ccc(Cl)cc2)oc1N1CCOCC1       0.6
42  CC12CCC(C(=O)NCc3ccc4c(c3)OCO4)(CC1=O)C2(C)C (configuration not stated)       4.8
43  CCC(C)NCCOCCOc1ccc(Cl)c2ccccc12 (configuration not stated)      -6.5
44  CC1(C)OC2OC(C(=O)N/N=C/c3ccccc3F)C3OC(C)(C)OC3C2O1 (configuration not stated)      -1.9
45  CC1=CC2(O)OCCN(CCO)C2=CC1=O (configuration not stated)       2.5
46  O=C(COc1ccc2c(-c3ccccc3)cc(=O)oc2c1)NCc1cccs1        -6
47          Cc1ccc(Cl)c(Nc2ccccc2C(=O)O)c1Cl       0.3
